- Target or system: Mitogen-activated protein kinase 14 (Mus musculus)
- Sequence (P47811 whole entry): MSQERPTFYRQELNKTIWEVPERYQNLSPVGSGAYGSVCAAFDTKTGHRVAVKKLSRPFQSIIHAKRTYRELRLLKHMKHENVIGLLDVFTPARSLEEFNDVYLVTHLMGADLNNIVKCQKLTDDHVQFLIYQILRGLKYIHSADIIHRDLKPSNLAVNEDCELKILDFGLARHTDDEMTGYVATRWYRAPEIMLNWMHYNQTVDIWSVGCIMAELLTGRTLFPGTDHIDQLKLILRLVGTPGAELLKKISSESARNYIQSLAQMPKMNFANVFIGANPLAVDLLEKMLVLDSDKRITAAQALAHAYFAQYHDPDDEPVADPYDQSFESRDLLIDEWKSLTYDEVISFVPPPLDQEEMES
- Test description: Inhibition of murine Mitogen-activated protein kinase p38 alpha
Value kind: IC50 (nM)

1. O=C1NCc2cc(NS(=O)(=O)c3cc(Cl)ccc3O)ccc2N1c1c(Cl)cccc1Cl 570
2. COc1cc2c(-c3ccccc3)nc(=O)n(C(C)C)c2cc1N1CCOCC1 14000
3. O=C1NCc2cc(NS(=O)(=O)c3ccccc3Cl)ccc2N1c1c(Cl)cccc1Cl 180
4. O=C1NCc2cc(NS(=O)(=O)c3ccc(F)c(Cl)c3)ccc2N1c1c(Cl)cccc1Cl 34
5. CN(c1ccc2c(c1)CNC(=O)N2c1c(Cl)cccc1Cl)S(=O)(=O)c1cc(Cl)ccc1Cl 780
6. Cc1ccc(S(=O)(=O)Nc2ccc3c(c2)CNC(=O)N3c2c(Cl)cccc2Cl)cc1 1800
7. O=C1NCc2cc(NCc3ccccc3)ccc2N1c1c(Cl)cccc1Cl 150
8. O=C1NCc2ccccc2N1c1c(Cl)cccc1Cl 11800
9. O=C1NCc2cc(Nc3ccc(F)cc3F)ccc2N1c1c(Cl)cccc1Cl 380
10. O=C1NCc2cc(NS(=O)(=O)c3cc(Cl)ccc3Cl)ccc2N1c1c(Cl)cccc1Cl 100
11. O=C(Nc1ccc2c(c1)CNC(=O)N2c1c(Cl)cccc1Cl)c1ccccc1 8500
12. O=C1NCc2cc(NS(=O)(=O)c3ccccc3)ccc2N1c1c(Cl)cccc1Cl 53
13. O=C1NCc2cc(Sc3ccc(F)cc3F)ccc2N1c1c(Cl)cccc1Cl 470

# credit: ChEMBL document CHEMBL1146826
